tested on: P. falciparum K1 (CQ-resistant); assay: [3H]-hypoxanthine incorporation assay, K1 strain; format: cell-based; settings: Plasmodium falciparum, values marked with asterisk: [3H]-hypoxanthine assay, read-out: IC50 growth inhibition K1 (*)
pIC50: −log10 of the molar value.
test_readout: pIC50

# annotated cases, reported pIC50 shown
CC(C)CCNC(=O)c1ccccc1OCC(O)CNCc1ccc(C(F)(F)F)cc1 (centres unmarked); 6.43
CN(CC(O)COc1ccccc1C(=O)Nc1ccc(F)cc1)CC12CC3CC(CC(C3)C1)C2 (centres unmarked); 7.80
O=C(NCCc1ccccc1)c1cc(Cl)ccc1OCC(O)CNCC12CC3CC(CC(C3)C1)C2 (centres unmarked); 8.10

a. Cc1ccc(NC(=O)c2ccccc2OCC(O)CN2CCC(Cc3ccccc3)CC2)cc1 (centres unmarked)
b. O=C(Nc1cccc(C(F)(F)F)c1)c1cc(Cl)ccc1OCC(O)CN1CCC(Cc2ccccc2)CC1 (centres unmarked)
c. O=C(Nc1ccc(F)cc1)c1cc(Cl)ccc1OCC(O)CNCC12CC3CC(CC(C3)C1)C2 (centres unmarked)
d. O=C(NCc1ccc(C(F)(F)F)cc1)c1ccccc1OCC(O)CNCC12CC3CC(CC(C3)C1)C2 (centres unmarked)
Order the 4 compounds from highest to lowest pIC50. Returns: the labels listed in the requested order.
c, b, a, d
